# assay remarks: Solid solubility test (2 h and 24 h)
# Type: physicochemical
# cond: Test ES2: 50 mM phosphate buffer (pH 4.5)
experimental readout: pH measured at 2 h

QUERY: Given the entry C=CC(=O)Nc1cc(Nc2ncnc(-c3cn(C)c4ccccc34)n2)c(OC)cc1N(C)CCN(C)C [Example 2] , report its measured pH measured at 2 h.
RESULT: (4.5)

QUERY: Repeat with C=CC(=O)Nc1cc(Nc2ncnc(-c3cn(C)c4ccccc34)n2)c(OC)cc1N(C)CCN(C)C [Example 1]
RESULT: (4.6)

QUERY: Repeat with C=CC(=O)Nc1cc(Nc2ncnc(-c3cn(C)c4ccccc34)n2)c(OC)cc1N(C)CCN(C)C [Example 9]
RESULT: (4.3)

QUERY: Repeat with C=CC(=O)Nc1cc(Nc2ncnc(-c3cn(C)c4ccccc34)n2)c(OC)cc1N(C)CCN(C)C [Example 4]
RESULT: (4.5)

QUERY: Repeat with C=CC(=O)Nc1cc(Nc2ncnc(-c3cn(C)c4ccccc34)n2)c(OC)cc1N(C)CCN(C)C [Example 3]
RESULT: (4.2)

Below: the item to evaluate.
QUERY: Given the entry C=CC(=O)Nc1cc(Nc2ncnc(-c3cn(C)c4ccccc34)n2)c(OC)cc1N(C)CCN(C)C [Example 6] , report its measured pH measured at 2 h.
RESULT: (4.5)

----------
# assay remarks: Solid solubility test (2 h and 24 h)
# Assay type: physicochemical
# cond: FeSSIF-V1, 37 °C, pH 5, fessif, thermodynamic from solid, Test ES3: FeSSIF-V1 (pH 5.0), 37° C., based on free base; read-out: Solubility measured at 2 h
experimental readout: solubility at 2 h

QUERY: Given the entry "C=CC(=O)Nc1cc(Nc2ncnc(-c3cn(C)c4ccccc34)n2)c(OC)cc1N(C)CCN(C)C" , report its measured solubility at 2 h.
RESULT: > 2000 µg/mL

----------
# assay remarks: Solid storage stability test
# Type: physicochemical
# cond: Test BS1: solid/25° C./60% RH/open/1 week
experimental readout: Purity (%)
Numbers only; they are read as %.

QUERY: Given the entry C=CC(=O)Nc1cc(Nc2ncnc(-c3cn(C)c4ccccc34)n2)c(OC)cc1N(C)CCN(C)C [Example 3] , report its measured Purity.
RESULT: 99.6

QUERY: Repeat with C=CC(=O)Nc1cc(Nc2ncnc(-c3cn(C)c4ccccc34)n2)c(OC)cc1N(C)CCN(C)C [Example 10]
RESULT: 99.9

QUERY: Repeat with C=CC(=O)Nc1cc(Nc2ncnc(-c3cn(C)c4ccccc34)n2)c(OC)cc1N(C)CCN(C)C [Example 7]
RESULT: 99.6

QUERY: Repeat with C=CC(=O)Nc1cc(Nc2ncnc(-c3cn(C)c4ccccc34)n2)c(OC)cc1N(C)CCN(C)C [Example 1]
RESULT: 99.6

QUERY: Repeat with C=CC(=O)Nc1cc(Nc2ncnc(-c3cn(C)c4ccccc34)n2)c(OC)cc1N(C)CCN(C)C [Example 5]
RESULT: 99.9

QUERY: Repeat with C=CC(=O)Nc1cc(Nc2ncnc(-c3cn(C)c4ccccc34)n2)c(OC)cc1N(C)CCN(C)C [Example 4]
RESULT: 99.8

QUERY: Repeat with C=CC(=O)Nc1cc(Nc2ncnc(-c3cn(C)c4ccccc34)n2)c(OC)cc1N(C)CCN(C)C [Example 2]
RESULT: 99.9

QUERY: Repeat with C=CC(=O)Nc1cc(Nc2ncnc(-c3cn(C)c4ccccc34)n2)c(OC)cc1N(C)CCN(C)C [Example 6]
RESULT: 98.2

QUERY: Repeat with C=CC(=O)Nc1cc(Nc2ncnc(-c3cn(C)c4ccccc34)n2)c(OC)cc1N(C)CCN(C)C [Example 8]
RESULT: 99.9

QUERY: Repeat with C=CC(=O)Nc1cc(Nc2ncnc(-c3cn(C)c4ccccc34)n2)c(OC)cc1N(C)CCN(C)C [Example 9]
RESULT: 99.7

----------
Kindly supply the reported Original purity values for the records listed here.
# assay remarks: Solid storage stability test
# Format: physicochemical
# cond: original solid before storage
Numbers only; they are read as %.

QUERY: Given the entry C=CC(=O)Nc1cc(Nc2ncnc(-c3cn(C)c4ccccc34)n2)c(OC)cc1N(C)CCN(C)C [Example 10] , report its measured Original purity.
RESULT: 99.9

QUERY: Repeat with C=CC(=O)Nc1cc(Nc2ncnc(-c3cn(C)c4ccccc34)n2)c(OC)cc1N(C)CCN(C)C [Example 8]
RESULT: 99.8

QUERY: Repeat with C=CC(=O)Nc1cc(Nc2ncnc(-c3cn(C)c4ccccc34)n2)c(OC)cc1N(C)CCN(C)C [Example 4]
RESULT: 99.9

QUERY: Repeat with C=CC(=O)Nc1cc(Nc2ncnc(-c3cn(C)c4ccccc34)n2)c(OC)cc1N(C)CCN(C)C [Example 1]
RESULT: 99.9

QUERY: Repeat with C=CC(=O)Nc1cc(Nc2ncnc(-c3cn(C)c4ccccc34)n2)c(OC)cc1N(C)CCN(C)C [Example 2]
RESULT: 99.9

QUERY: Repeat with C=CC(=O)Nc1cc(Nc2ncnc(-c3cn(C)c4ccccc34)n2)c(OC)cc1N(C)CCN(C)C [Example 7]
RESULT: 99.6

----------
# assay remarks: Solid solubility test (2 h and 24 h)
# Format: physicochemical
# cond: Test ES1: 0.1N HCl solution (pH 1.0)
experimental readout: pH measured at 2 h

QUERY: Given the entry C=CC(=O)Nc1cc(Nc2ncnc(-c3cn(C)c4ccccc34)n2)c(OC)cc1N(C)CCN(C)C [Example 10] , report its measured pH measured at 2 h.
RESULT: (0.8)

QUERY: Repeat with C=CC(=O)Nc1cc(Nc2ncnc(-c3cn(C)c4ccccc34)n2)c(OC)cc1N(C)CCN(C)C [Example 9]
RESULT: (0.8)

QUERY: Repeat with C=CC(=O)Nc1cc(Nc2ncnc(-c3cn(C)c4ccccc34)n2)c(OC)cc1N(C)CCN(C)C [Example 7]
RESULT: (0.8)

QUERY: Repeat with C=CC(=O)Nc1cc(Nc2ncnc(-c3cn(C)c4ccccc34)n2)c(OC)cc1N(C)CCN(C)C [Example 1]
RESULT: (0.8)

QUERY: Repeat with C=CC(=O)Nc1cc(Nc2ncnc(-c3cn(C)c4ccccc34)n2)c(OC)cc1N(C)CCN(C)C [Example 3]
RESULT: (0.71

Below: the item to evaluate.
QUERY: Given the entry C=CC(=O)Nc1cc(Nc2ncnc(-c3cn(C)c4ccccc34)n2)c(OC)cc1N(C)CCN(C)C [Example 4] , report its measured pH measured at 2 h.
RESULT: (0.7)

----------
# assay remarks: Solid solubility test (2 h and 24 h)
# Type: physicochemical
# cond: Test ES2: 50 mM phosphate buffer (pH 4.5)
experimental readout: pH measured at 2 h

QUERY: Given the entry C=CC(=O)Nc1cc(Nc2ncnc(-c3cn(C)c4ccccc34)n2)c(OC)cc1N(C)CCN(C)C [Example 8] , report its measured pH measured at 2 h.
RESULT: (4.4)

QUERY: Repeat with C=CC(=O)Nc1cc(Nc2ncnc(-c3cn(C)c4ccccc34)n2)c(OC)cc1N(C)CCN(C)C [Example 5]
RESULT: (4.2)

QUERY: Repeat with C=CC(=O)Nc1cc(Nc2ncnc(-c3cn(C)c4ccccc34)n2)c(OC)cc1N(C)CCN(C)C [Example 7]
RESULT: (4.2)

QUERY: Repeat with C=CC(=O)Nc1cc(Nc2ncnc(-c3cn(C)c4ccccc34)n2)c(OC)cc1N(C)CCN(C)C [Example 10]
RESULT: (4.4)

----------
# assay remarks: Solid storage stability test
# Format: physicochemical
# cond: original solid before storage
experimental readout: Original morphology

Example entries and their recorded answers appear below.
QUERY: Given the entry C=CC(=O)Nc1cc(Nc2ncnc(-c3cn(C)c4ccccc34)n2)c(OC)cc1N(C)CCN(C)C [Example 1] , report its measured Original morphology.
RESULT: amorphous

QUERY: Repeat with C=CC(=O)Nc1cc(Nc2ncnc(-c3cn(C)c4ccccc34)n2)c(OC)cc1N(C)CCN(C)C [Example 2]
RESULT: amorphous

QUERY: Repeat with C=CC(=O)Nc1cc(Nc2ncnc(-c3cn(C)c4ccccc34)n2)c(OC)cc1N(C)CCN(C)C [Example 8]
RESULT: amorphous

QUERY: Repeat with C=CC(=O)Nc1cc(Nc2ncnc(-c3cn(C)c4ccccc34)n2)c(OC)cc1N(C)CCN(C)C [Example 7]
RESULT: amorphous

---
QUERY: Given the entry C=CC(=O)Nc1cc(Nc2ncnc(-c3cn(C)c4ccccc34)n2)c(OC)cc1N(C)CCN(C)C [Example 5] , report its measured Original morphology.
RESULT: amorphous

QUERY: Repeat with C=CC(=O)Nc1cc(Nc2ncnc(-c3cn(C)c4ccccc34)n2)c(OC)cc1N(C)CCN(C)C [Example 4]
RESULT: amorphous

----------
# assay remarks: Solid solubility test (2 h and 24 h)
# Format: physicochemical
# cond: FaSSIF-V1 (pH 6.5) (Test ES4, partly printed ES1)
experimental readout: pH measured at 2 h

QUERY: Given the entry C=CC(=O)Nc1cc(Nc2ncnc(-c3cn(C)c4ccccc34)n2)c(OC)cc1N(C)CCN(C)C [Example 4] , report its measured pH measured at 2 h.
RESULT: (6.5)

QUERY: Repeat with C=CC(=O)Nc1cc(Nc2ncnc(-c3cn(C)c4ccccc34)n2)c(OC)cc1N(C)CCN(C)C [Example 3]
RESULT: (6.1)

QUERY: Repeat with C=CC(=O)Nc1cc(Nc2ncnc(-c3cn(C)c4ccccc34)n2)c(OC)cc1N(C)CCN(C)C [Example 9]
RESULT: (6.1)

QUERY: Repeat with C=CC(=O)Nc1cc(Nc2ncnc(-c3cn(C)c4ccccc34)n2)c(OC)cc1N(C)CCN(C)C [Example 1]
RESULT: (6.8)

QUERY: Repeat with C=CC(=O)Nc1cc(Nc2ncnc(-c3cn(C)c4ccccc34)n2)c(OC)cc1N(C)CCN(C)C [Example 7]
RESULT: (6.1)

QUERY: Repeat with C=CC(=O)Nc1cc(Nc2ncnc(-c3cn(C)c4ccccc34)n2)c(OC)cc1N(C)CCN(C)C [Example 5]
RESULT: (6.2)

QUERY: Repeat with C=CC(=O)Nc1cc(Nc2ncnc(-c3cn(C)c4ccccc34)n2)c(OC)cc1N(C)CCN(C)C [Example 2]
RESULT: (6.5)

QUERY: Repeat with C=CC(=O)Nc1cc(Nc2ncnc(-c3cn(C)c4ccccc34)n2)c(OC)cc1N(C)CCN(C)C [Example 8]
RESULT: (6.4)

QUERY: Repeat with C=CC(=O)Nc1cc(Nc2ncnc(-c3cn(C)c4ccccc34)n2)c(OC)cc1N(C)CCN(C)C [Example 6]
RESULT: (6.5)

---
QUERY: Given the entry C=CC(=O)Nc1cc(Nc2ncnc(-c3cn(C)c4ccccc34)n2)c(OC)cc1N(C)CCN(C)C [Example 10] , report its measured pH measured at 2 h.
RESULT: (6.4)
